Each entry below carries its reported phage ELISA signal ratio.
Biological target: T1, DYNLL2 1-89 Dynein_light (domain begin residue: 1, domain end residue: 89), Q96FJ2
T1 chain: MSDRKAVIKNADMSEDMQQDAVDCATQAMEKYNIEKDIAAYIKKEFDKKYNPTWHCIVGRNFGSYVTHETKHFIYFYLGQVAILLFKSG
Experiment: phage ELISA signal ratio (GST-PRM binding over GST background); higher = stronger binding of peptide-phage to the PRM
When you answer, write just the number.

# annotated cases, reported phage ELISA signal ratio shown
| BINDER | QUANTITY_KIND | RECORDED_VALUE |
| --- | --- | --- |
| QQTDDWHVAETGIWLA | phage ELISA signal ratio | 13.9 |
| TQTDVISWQEFIFMRP | phage ELISA signal ratio | 36.2 |
| WTQTMNNITPWIEGIA | phage ELISA signal ratio | 26.2 |
| AMVQTEDDWEMMWEQL | phage ELISA signal ratio | 17.6 |

**Q:** For the binder shown here, STQTDSNWKMMPDGTV , give the reported phage ELISA signal ratio.
**A:** 34.5

**Q:** Entry to check: DIFPTYQHFMQQYSSE
**A:** 30.3
